Entry source: ChEMBL document CHEMBL4837268

# Study target: Cereblon/Ikaros (Homo sapiens) (UniProt Q96SW2+Q13422)
# Assay: Protac activity at CRBN/IKZF1 in human MM1.S cells assessed as protein levels at 1 uM measured after 72 hrs by Western blot analysis relative to control
# Format: cell-based
Measured Activity, listed per entry for reference.

# count of solved cases: 3
[in] I'd like to know its Activity. The compound in question is CC(=O)c1c(C)c2cnc(Nc3ccc(N4CCN(CC(=O)NCCOCCOCCOCC(=O)Nc5cccc6c5CN(C5CCC(=O)NC5=O)C6=O)CC4)cn3)nc2n(C2CCCC2)c1=O (centres undefined)
[out] > 95%

[in] Consider the compound shown here: CC(=O)c1c(C)c2cnc(Nc3ccc(N4CCN(CC(=O)NCCOCCOCCOCC(=O)NCc5cccc6c5C(=O)N(C5CCC(=O)NC5=O)C6=O)CC4)cn3)nc2n(C2CCCC2)c1=O (centres undefined) What is its recorded Activity?
[out] > 95%

[in] Which measured Activity value corresponds to CC(=O)c1c(C)c2cnc(Nc3ccc(N4CCN(CC(=O)NCCOCCOCCOCCNc5cccc6c5C(=O)N(C5CCC(=O)NC5=O)C6=O)CC4)cn3)nc2n(C2CCCC2)c1=O (centres undefined) ?
[out] 2%

More entries:
[in] Quick check: Activity of CC(=O)c1c(C)c2cnc(Nc3ccc(N4CCN(CC(=O)NCCOCCOCCOCCNC(=O)COc5cccc6c5C(=O)N(C5CCC(=O)NC5=O)C6=O)CC4)cn3)nc2n(C2CCCC2)c1=O (centres undefined) ?
[out] > 95%

###

# Assay: physchem
# Condition label: buffer, pH 7.4
# Description: Lipophilicity, logD of the compound at pH 7.4 by HPLC analysis
# logD per record follows
// no unit, no text: just the number

[in] # lookup: logD of O=C(CNc1ccc2c(c1)C(=O)N(C1CCC(=O)NC1=O)C2=O)NCCOCCOCCOCc1ccccc1 (stereo not drawn)
[out] 1.8

[in] If you can, please state the reported logD value of O=C1CCC(N2C(=O)c3cccc(C#CCOCCOCCOCc4ccccc4)c3C2=O)C(=O)N1 (stereo not drawn) .
[out] 3.2

[in] Give its logD value. Item: O=C1CCC(N2C(=O)c3ccc(C#CCOCCOCCOCc4ccccc4)cc3C2=O)C(=O)N1 (stereo not drawn)
[out] 3.3

###

# Study target: Cereblon/Ikaros (Homo sapiens) (UniProt Q96SW2+Q13422)
# Assay: Protac activity at CRBN/IKZF1 in human MM1.S cells assessed as induction of IKZF1 degradation at 1 uM incubated for 6 hrs relative to control
# Assay type: cell-based
Endpoint label: Activity (%)
Record the value in %, omitting the unit from your answer.

Check out these entries, answers already filled in.
[in] Need Activity of O=C1CCC(N2Cc3c(OCCOCCOCCOCc4ccccc4)cccc3C2=O)C(=O)N1 (centres undefined) , thanks.
[out] 22

[in] Reported Activity for O=C1CCC(N2C(=O)c3ccc(OCCOCCOCCOCc4ccccc4)cc3C2=O)C(=O)N1 (centres undefined) : what is it?
[out] 0

[in] Need Activity, item O=C1CCC(N2Cc3cc(OCCOCCOCCOCc4ccccc4)ccc3C2=O)C(=O)N1 (centres undefined)
[out] 16

Now for the compound whose Activity we want.
[in] Quick one: Activity of O=C(CNc1ccc2c(c1)C(=O)N(C1CCC(=O)NC1=O)C2=O)NCCOCCOCCOCc1ccccc1 (centres undefined) ?
[out] 6

###

# Assay: physchem
# Condition label: buffer, pH 7.4
yes (1) means recorded logD is 2 or above; no (0) means it is below 2.

Solved entries (count: 2):
[in] Identify whether the reported logD of the following molecule is 2 or greater: O=C1CCC(N2Cc3cc(NC(=O)COCCOCCOCc4ccccc4)ccc3C2=O)C(=O)N1 (centres undefined)
[out] no (0)

[in] Does the reported logD for O=C1CCC(N2C(=O)c3ccc(C(=O)NCCOCCOCCOCc4ccccc4)cc3C2=O)C(=O)N1 (centres undefined) fall at or above the 2 mark?
[out] no (0)

Continuing:
[in] Is logD at least 2? Consider O=C1CCC(N2Cc3cc(NCCOCCOCCOCc4ccccc4)ccc3C2=O)C(=O)N1 (centres undefined)
[out] yes (1)

[in] Decide: is the reported value of logD for O=C1CCC(N2C(=O)c3cccc(OCCOCCOCCOCc4ccccc4)c3C2=O)C(=O)N1 (centres undefined) equal to or greater than 2?
[out] yes (1)

[in] # bool: logD of O=C1CCC(N2C(=O)c3ccc(NC(=O)COCCOCCOCc4ccccc4)cc3C2=O)C(=O)N1 (centres undefined) >= 2
[out] yes (1)

[in] Given the entry O=C1CCC(N2Cc3cc(OCCOCCOCCOCc4ccccc4)ccc3C2=O)C(=O)N1 (centres undefined) , answer whether its logD meets or surpasses 2.
[out] yes (1)

[in] Evaluate O=C(CNc1cccc2c1C(=O)N(C1CCC(=O)NC1=O)C2=O)NCCOCCOCCOCc1ccccc1 (centres undefined) : logD at minimum 2?
[out] yes (1)

[in] Reported logD at or above 2? O=C1CCC(N2C(=O)c3ccc(NCCOCCOCCOCc4ccccc4)cc3C2=O)C(=O)N1 (centres undefined)
[out] yes (1)
